# key: entry, value: inhibition of growth at 10 µM
# Tested on: A549
# Experiment summary: Cytotoxicity against human A549 cells assessed as growth inhibition at 10 uM by SRB assay
# Assay type: functional
# Test settings: read-out: GI
Express your answer in %, writing the number without its unit.

Record request: inhibition of growth at 10 µM value, item C[C@@H]1CC[C@H]2[C@@H](C)C(OCCC#Cc3ccc(-c4ccc(C#CCCOC5O[C@@H]6O[C@@]7(C)CC[C@H]8[C@H](C)CC[C@@H]([C@H]5C)[C@@]68OO7)cc4)cc3)O[C@@H]3O[C@@]4(C)CC[C@@H]1[C@]32OO4 (stereo partly specified)
67

Subsequent entry: C[C@@H]1CC[C@H]2[C@@H](C)C(OCC#Cc3ccc(C#CCOC4O[C@@H]5O[C@@]6(C)CC[C@H]7[C@H](C)CC[C@@H]([C@H]4C)[C@@]57OO6)s3)O[C@@H]3O[C@@]4(C)CC[C@@H]1[C@]32OO4 (stereo partly specified)
70

Subsequent entry: C[C@@H]1CC[C@H]2[C@@H](C)C(OCCC#Cc3ccc(C#CCCOC4O[C@@H]5O[C@@]6(C)CC[C@H]7[C@H](C)CC[C@@H]([C@H]4C)[C@@]57OO6)cc3)O[C@@H]3O[C@@]4(C)CC[C@@H]1[C@]32OO4 (stereo partly specified)
56

Subsequent entry: CC(=O)O[C@H]1C(=O)[C@@]2(C)[C@H]([C@H](OC(=O)c3ccccc3)[C@]3(O)C[C@H](OC(=O)[C@H](O)[C@@H](NC(=O)c4ccccc4)c4ccccc4)C(C)=C1C3(C)C)[C@]1(OC(C)=O)CO[C@@H]1C[C@@H]2O [PACLITAXEL]
56

Subsequent entry: C[C@@H]1CC[C@H]2[C@@H](C)C(OCC#Cc3ccc(C#CCOC4O[C@@H]5O[C@@]6(C)CC[C@H]7[C@H](C)CC[C@@H]([C@H]4C)[C@@]57OO6)cc3)O[C@@H]3O[C@@]4(C)CC[C@@H]1[C@]32OO4 (stereo partly specified)
67

Subsequent entry: C[C@@H]1CC[C@H]2[C@@H](C)C(=O)O[C@@H]3O[C@@]4(C)CC[C@@H]1[C@]32OO4 [ARTEMISININ]
26

====

# Experiment summary: Cytotoxicity against human prostate cancer cells assessed as growth inhibition at 10 uM by SRB assay
# Format: functional
# Test settings: Cancer cell lines, read-out: GI
# key: entry, value: inhibition of growth at 10 µM
Express your answer in %, writing the number without its unit.

Record request: inhibition of growth at 10 µM value, item `C[C@@H]1CC[C@H]2[C@@H](C)C(=O)O[C@@H]3O[C@@]4(C)CC[C@@H]1[C@]32OO4`
35

Subsequent entry: C[C@@H]1CC[C@H]2[C@@H](C)C(OCC#Cc3ccc(C#CCOC4O[C@@H]5O[C@@]6(C)CC[C@H]7[C@H](C)CC[C@@H]([C@H]4C)[C@@]57OO6)cc3)O[C@@H]3O[C@@]4(C)CC[C@@H]1[C@]32OO4 (stereo not given in full)
56

Subsequent entry: C[C@@H]1CC[C@H]2[C@@H](C)C(OCCC#Cc3cccc(C#CCCOC4O[C@@H]5O[C@@]6(C)CC[C@H]7[C@H](C)CC[C@@H]([C@H]4C)[C@@]57OO6)c3)O[C@@H]3O[C@@]4(C)CC[C@@H]1[C@]32OO4 (stereo not given in full)
45

Subsequent entry: C[C@@H]1CC[C@H]2[C@@H](C)C(OCC#Cc3ccc(C#CCOC4O[C@@H]5O[C@@]6(C)CC[C@H]7[C@H](C)CC[C@@H]([C@H]4C)[C@@]57OO6)s3)O[C@@H]3O[C@@]4(C)CC[C@@H]1[C@]32OO4 (stereo not given in full)
44

Subsequent entry: `CO[C@@]12[C@H](COC(N)=O)C3=C(C(=O)C(C)=C(N)C3=O)N1C[C@@H]1N[C@@H]12`
65

Subsequent entry: C[C@@H]1CC[C@H]2[C@@H](C)C(OCCC#Cc3ccc(C#CCCOC4O[C@@H]5O[C@@]6(C)CC[C@H]7[C@H](C)CC[C@@H]([C@H]4C)[C@@]57OO6)cc3)O[C@@H]3O[C@@]4(C)CC[C@@H]1[C@]32OO4 (stereo not given in full)
48

Subsequent entry: C[C@@H]1CC[C@H]2[C@@H](C)C(OCC#Cc3ccc(-c4ccc(C#CCOC5O[C@@H]6O[C@@]7(C)CC[C@H]8[C@H](C)CC[C@@H]([C@H]5C)[C@@]68OO7)cc4)cc3)O[C@@H]3O[C@@]4(C)CC[C@@H]1[C@]32OO4 (stereo not given in full)
46
